- system tested: HIV-1 integrase wild-type (IN1-288) (Human immunodeficiency virus 1) (UniProt P04585)
- protocol: inhibition
- condition: I = deoxyinosine; PS at first and last linkage; 3'-processing column as printed; strand transfer column 0.070
outcome measure: IC50 (nM)
Express your answer in nM, writing the number without its unit.

Please look at IGGIIGGIIGGIIGGI [T30721] and tell me its recorded IC50 on HIV-1 integrase wild-type (IN1-288) (Human immunodeficiency virus 1) (UniProt P04585).
88
